Listing of entries alongside the reported % Competition.
Biological target: T1, mFc tagged human SIRPα v1 ECD recombinant protein (human, UniProt P78324 31-373)
T1 construct: extracellular domain; Bought from Biointron; not shown: mouse IgG Fc (mFc) tag
T1 sequence (P78324 31-373): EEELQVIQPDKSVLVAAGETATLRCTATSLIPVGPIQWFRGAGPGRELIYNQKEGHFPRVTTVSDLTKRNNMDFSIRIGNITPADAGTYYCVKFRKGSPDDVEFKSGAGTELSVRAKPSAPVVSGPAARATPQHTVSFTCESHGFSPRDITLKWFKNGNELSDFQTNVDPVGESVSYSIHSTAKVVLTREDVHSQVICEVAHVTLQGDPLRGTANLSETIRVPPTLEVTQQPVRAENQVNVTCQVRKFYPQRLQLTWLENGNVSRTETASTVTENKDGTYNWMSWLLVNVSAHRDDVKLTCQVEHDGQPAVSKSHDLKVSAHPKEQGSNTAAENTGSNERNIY
Experiment: competitive ELISA binning, mFc-SIRPα v1 ECD; competitor 042c
Write the value in % as a bare number.

073c (antibody, V domains shown, also called chimeric antibody 073c) VH: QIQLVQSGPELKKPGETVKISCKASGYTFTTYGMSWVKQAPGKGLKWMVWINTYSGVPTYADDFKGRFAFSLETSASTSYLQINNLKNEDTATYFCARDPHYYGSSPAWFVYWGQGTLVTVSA VL: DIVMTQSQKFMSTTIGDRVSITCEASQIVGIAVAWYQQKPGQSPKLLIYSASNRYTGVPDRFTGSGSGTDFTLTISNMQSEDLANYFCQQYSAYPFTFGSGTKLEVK : 93.6

Identify the reported % Competition for the following entry. hu1H9G4 (antibody, V domains shown) VH: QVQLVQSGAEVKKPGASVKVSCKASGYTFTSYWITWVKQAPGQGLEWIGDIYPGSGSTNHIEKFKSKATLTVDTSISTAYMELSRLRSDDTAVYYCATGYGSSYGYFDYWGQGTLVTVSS VL: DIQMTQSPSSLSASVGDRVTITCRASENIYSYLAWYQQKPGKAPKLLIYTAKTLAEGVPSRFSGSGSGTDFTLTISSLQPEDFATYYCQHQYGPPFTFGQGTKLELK
82.6

Check the records and state % Competition for 025c (antibody, V domains shown, also called chimeric antibody 025c; parental antibody of 025c) VH: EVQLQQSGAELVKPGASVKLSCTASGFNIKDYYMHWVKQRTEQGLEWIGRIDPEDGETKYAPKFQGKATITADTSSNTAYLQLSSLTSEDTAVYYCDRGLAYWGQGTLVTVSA VL: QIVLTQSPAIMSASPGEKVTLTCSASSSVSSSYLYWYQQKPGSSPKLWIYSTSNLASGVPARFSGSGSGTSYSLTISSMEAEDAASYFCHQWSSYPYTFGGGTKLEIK
19.1
